Recorded values, source PubChem BioAssay (Tox21).

run description: qHTS RealTime-Glo MT Cell Viability Assay in HepG2 cells - 40 hour (AID 1224870); further: nearly all actives have a fitted effect of over 50% in size
protocol conditions: RealTime-Glo luminescence; series mostly up to 76.8 µM
Records with an inconclusive call do not appear. The source made the active and inactive calls. The call rests on the fitted dose curve; in most records, active means well fitted cell-killing curve with a large enough effect in the repeat runs; inconclusive means weak or mixed curves, or effect the other way; inactive means flat fitted curve, though single readings scatter.
The reply should be one of these categories: 1.0 (active), 0.0 (inactive)

See these solved cases before continuing.
C[N+](C)(C)CC[N+]1(C)Cc2c(Cl)c(Cl)c(Cl)c(Cl)c2C1 | 1.0
C=C(C)C1CC=C(C)C(O)C1 (configuration not stated) | 0.0
NC(=O)Nc1nc2ccccc2[nH]1 | 0.0
Nc1[nH]c(=O)ncc1F | 0.0
CN(C)N=Nc1ccccc1 | 0.0
CC1=CCC2C(C1)C2(C)C (configuration not stated) | 0.0

// query Could you please tell me the result logged for CCCCCOC(=O)Nc1nc(=O)n([C@@H]2O[C@H](C)[C@@H](O)[C@H]2O)cc1F in this assay?
// result 0.0

// query Hi, do you know how Oc1ccc2c(c1)OC[C@@H](N1CCC(O)(c3ccc(F)cc3)CC1)[C@H]2O came out in this test?
// result 0.0

// query I would be grateful if you could indicate the recorded call for C(=C(c1ccccc1)c1ccccc1)c1ccccc1 .
// result 0.0

// query Record lookup: outcome of this test for Nc1ncnc2c1ncn2Cc1c(F)cccc1Cl ?
// result 0.0

// query Outcome? Cc1ccccc1C(=O)O
// result 0.0

// query Which result was noted for this compound in the test: O=C1CC2(CCCC2)CC(=O)N1
// result 0.0

// query Would you mind telling me which call this test gave CCn1c(=O)c2c(nc(/C=C/c3ccc(OC)c(OC)c3)n2C)n(CC)c1=O ?
// result 0.0
